assay: in vitro; details: human, CEM/0 cells (wild-type CD4+ T-cells)
CC50 by entry:
Answer with a number only, understood to be in µM.

Below: 5 compounds and their reported CC50.
CCCCCCCCCCCCCCCCCCP(=O)(OCc1ccc(OC(=O)CCCC)cc1)OP(=O)(O)OP(=O)(O)OC[C@H]1O[C@@H](n2ccc(=O)[nH]c2=O)C[C@@H]1F (stereo partly drawn) [10fz]
42
CCCCCCCCCCCCCCCCCCOP(=O)(OCc1ccc(OC(=O)CCCC)cc1)OP(=O)(O)OP(=O)(O)OC[C@H]1O[C@@H](n2ccc(=O)[nH]c2=O)C[C@@H]1F (stereo partly drawn) [10fy]
43.3
CCCCCCCCCCCCCCCCCCOP(=O)(OCCCC)OP(=O)(O)OP(=O)(O)OC[C@@H]1C=C[C@H](n2cnc3c(NC4CC4)nc(N)nc32)C1 (stereo partly drawn) [10hv, γ‐(C4;C18)‐ABCTP]
39
CCCCCCCCCCCCCCCCCCP(=O)(OCCCC)OP(=O)(O)OP(=O)(O)OC[C@H]1O[C@@H](n2cc(Cl)c(=O)[nH]c2=O)C[C@@H]1F (stereo partly drawn) [10dx]
54.4
CCCCCCCCCCCCCCCCCCOP(=O)(OCC(CC)CCCC)OP(=O)(O)OP(=O)(O)OC[C@H]1O[C@@H](n2ccc(=O)[nH]c2=O)C[C@@H]1F (stereo partly drawn) [10fw]
63.5

Quick one: CC50 of CCCCCCCCCCCCCCCCCCOP(=O)(O)OP(=O)(O)OP(=O)(O)OC[C@H]1O[C@@H](n2ccc(=O)[nH]c2=O)C[C@@H]1F [20e, γ‐C18‐FddUTP] ?
63.7

* * *

System: pig liver esterase (PLE)
Experiment: Hydrolysis with pig liver esterase (PLE)
Assay type: in vitro ADME
Conditions: pig liver esterase (PLE) in PBS, PLE in PBS pH 7.3, 37 °C, read-out: PLE t 1/2 (converted)
Excerpt: Next, TriPPPro‐compounds 10 and 20 were exposed to PLE in PBS (pH 7.3) and the half‐lives of TriPPPro‐compounds 10 and 20 are listed in Table 1. […] In contrast, the cleavage of the AB (C4) masking group in TriPPPro‐compounds 10by–hy and 10bz–hz was triggered by ester hydrolysis and yielded the corresponding γ‐alkylated nucleoside triphosphate derivatives 20 (Figure 3B,D) and 21 (Figures S17 and S18, Supporting Information), respectively. […]
ENDPOINT: half-life at 0.45 mM (min)
Number only, in min; omit the unit.

CCCCCCCCCCCCCCCCCCOP(=O)(OCc1ccc(OC(=O)CCCC)cc1)OP(=O)(O)OP(=O)(O)OC[C@@H]1C=C[C@H](n2cnc3c(NC4CC4)nc(N)nc32)C1 (stereo partly drawn) [10hy]
58.2

Need half-life at 0.45 mM of CCCCCCCCCCCCCCCCCCOP(=O)(OCc1ccc(OC(=O)CCCC)cc1)OP(=O)(O)OP(=O)(O)OC[C@H]1O[C@@H](n2cc(/C=C/Br)c(=O)[nH]c2=O)C[C@@H]1O (stereo partly drawn) [10gy] , thanks.
18

* * *

test: in vitro; conditions: human
ENDPOINT: CC50

Which CC50 value belongs to O=c1[nH]c(=O)n([C@H]2C[C@H](O)[C@@H](CO)O2)cc1/C=C/Br [1g (BVDU), BVDU, reference compound] ?
207 µM

* * *

Test system: HIV‐2 [ROD]
Assay: Anti-HIV activity, HIV-2 in wild-type CEM/0 cells
Assay type: cell-based
Conditions: Human immunodeficiency virus 2, CCRF-CEM; wild-type CEM/0 cells, mean ±SD n = 2–3; read-out: Antiviral activity CEM/0 HIV‐2 [ROD] EC50
Procedure: Part 9. Anti-HIV activity assay. The produce was used as previously reported. 5 Inhibition of HIV-1(IIIB)- and HIV-2(ROD)-induced cytopathogenicity in wild-type CEM/0 and thymidine kinase-deficient CEM/TK– cell cultures was measured in […] containing appropriate dilutions of the test compounds. After 4−5 days of incubation at 37 °C in a CO2-controlled humidified atmosphere, CEM giant (syncytium) cell formation was examined microscopically. The […] giant cell formation by 50%. Part 10. […]
ENDPOINT: pEC50
FYI, pEC50 means -log10 of a concentration in mol per litre.

Example cases with answers are listed next.
CCCCCCCCCCCCCCCCCCOP(=O)(O)OP(=O)(O)OP(=O)(O)OC[C@H]1O[C@@H](n2cc(C)c(=O)[nH]c2=O)C[C@@H]1F [20f, γ‐C18‐FLTTP]
8.00
CCCCCCCCCCCCCCCCCCOP(=O)(O)OP(=O)(O)OP(=O)(O)OC[C@@H]1C=C[C@H](n2cnc3c(NC4CC4)nc(N)nc32)C1 [20h, γ‐C18‐ABCTP]
6.38
CCCCCCCCCCCCCCCCCCOP(=O)(O)OP(=O)(O)OP(=O)(O)OCC1OC(n2cc(C)c(=O)[nH]c2=O)CC1N=[N+]=[N-] (centres unmarked) [20b, γ‐(alkyl‐C18)‐AZTTP]
7.52
CCCCCCCCCCCCCCCCCCP(=O)(OCc1ccc(OC(=O)CCCC)cc1)OP(=O)(O)OP(=O)(O)OC[C@H]1O[C@@H](n2cc(C)c(=O)[nH]c2=O)C[C@@H]1N=[N+]=[N-] (some centres unmarked) [10bz, γ‐(AB‐C4)‐γ‐C‐(alkyl‐C18)‐AZTTP]
8.12

Please examine the following record next.
Value wanted: pEC50 (HIV‐2 [ROD]) of entry Cc1cn([C@H]2C[C@H](F)[C@@H](CO)O2)c(=O)[nH]c1=O [1f (FLT), FLT, reference compound]
8.37

* * *

assay: in vitro; details: human, plasma, Plasma (Citrate) t 1/2
Form field: half-life at 0.86 mM (one value per entry).
Express it in h; write the number only.

Study these solved cases before continuing.
CCCCCCCCCCCCCCCCCCP(=O)(OCc1ccc(OC(=O)CCCC)cc1)OP(=O)(O)OP(=O)(O)OC[C@@H]1C=C[C@H](n2cnc3c(NC4CC4)nc(N)nc32)C1 (stereo partly drawn) [10hz, γ‐(AB‐C4)‐γ‐C‐(alkyl‐C18)‐ABCTP]
5.6
CCCCCCCCCCCCCCCCCCP(=O)(OCc1ccc(OC(=O)CCCC)cc1)OP(=O)(O)OP(=O)(O)OC[C@H]1O[C@@H](n2cc(C)c(=O)[nH]c2=O)C[C@@H]1N=[N+]=[N-] (stereo partly drawn) [10bz, γ‐(AB‐C4)‐γ‐C‐(alkyl‐C18)‐AZTTP]
4.4
Cc1cn([C@H]2C[C@H](N=[N+]=[N-])[C@@H](COP(=O)(O)OP(=O)(O)O)O2)c(=O)[nH]c1=O [AZTDP, reference compound]
6.4

Note: attention shifts to another entry.
half-life at 0.86 mM lookup needed for CCCCCCCCCCCCCCCCCCOP(=O)(OCc1ccc(OC(=O)CCCC)cc1)OP(=O)(O)OP(=O)(O)OCC1OC(n2cc(C)c(=O)[nH]c2=O)CC1N=[N+]=[N-] (stereo not drawn) [10by, γ‐(AB‐C4;alkyl‐C18)‐AZTTP] , thanks.
3.7

* * *

test system: pig liver esterase (PLE); assay: Hydrolysis with pig liver esterase (PLE); format: in vitro ADME; details: pig liver esterase (PLE) in PBS, PLE in PBS pH 7.3, 37 °C, read-out: PLE t 1/2 (converted)
Quick list: half-life at 0.45 mM per entry.

Some entries whose results are on file:
CCCCCCCCCCCCCCCCCCOP(=O)(O)OP(=O)(O)OP(=O)(O)OCC1OC(n2cc(C)c(=O)[nH]c2=O)CC1N=[N+]=[N-] (stereo not drawn) [20b, γ‐(alkyl‐C18)‐AZTTP]
> 150 h
CCCCCCCCCCCCCCCCCCOP(=O)(OCc1ccc(OC(=O)CCCC)cc1)OP(=O)(O)OP(=O)(O)OC[C@@H]1O[C@H](n2cc(F)c(N)nc2=O)CS1 (stereo partly drawn) [10cy, γ‐(AB‐C4;alkyl‐C18)‐FTCTP]
0.24 h
CCCCCCCCCCCCCCCCCCOP(=O)(OCCCC)OP(=O)(O)OP(=O)(O)OC[C@@H]1O[C@H](n2cc(F)c(N)nc2=O)CS1 (stereo partly drawn) [10cv, γ‐(C4;C18)‐FTCTP]
> 150 h
CCCCCCCCCCCCCCCCCCOP(=O)(O)OP(=O)(O)OP(=O)(O)OC[C@H]1O[C@@H](n2ccc(=O)[nH]c2=O)C[C@@H]1F [20e, γ‐C18‐FddUTP]
> 150 h
CCCCCCCCCCCCCCCCCCP(=O)(OCCCC)OP(=O)(O)OP(=O)(O)OC[C@H]1O[C@@H](n2cc(C)c(=O)[nH]c2=O)C[C@@H]1N=[N+]=[N-] (stereo partly drawn) [10bx]
> 150 h
CCCCCCCCCCCCCCCCCCOP(=O)(O)OP(=O)(O)OP(=O)(O)OC[C@@H]1O[C@H](n2cc(F)c(N)nc2=O)CS1 [20c, γ‐C18‐FTCTP]
> 150 h

Recorded half-life at 0.45 mM for CCCCCCCCCCCCCCCCCCOP(=O)(OCCCC)OP(=O)(O)OP(=O)(O)OC[C@H]1O[C@@H](n2cc(C)c(=O)[nH]c2=O)C[C@@H]1N=[N+]=[N-] (stereo partly drawn) [10bv, γ‐(alkyl‐C4;alkyl‐C18)‐AZTTP] , please?
> 150 h

Given the entry CCCCCCCCCCCCCCCCCCOP(=O)(O)OP(=O)(O)OP(=O)(O)OC[C@@H]1C=C[C@H](n2cnc3c(NC4CC4)nc(N)nc32)C1 [20h, γ‐C18‐ABCTP] , report its measured half-life at 0.45 mM.
> 150 h

Given the compound CCCCCCCCCCCCCCCCCCOP(=O)(OCc1ccc(OC(=O)CCCC)cc1)OP(=O)(O)OP(=O)(O)OC[C@H]1O[C@@H](n2cc(Cl)c(=O)[nH]c2=O)C[C@@H]1F (stereo partly drawn) [10dy] , what is its reported half-life at 0.45 mM?
0.19 h
